The entries below are paired with their reported Activity.
- Organism: Rattus norvegicus
- assay_comment: Inhibition of D-serine transporter in Sprague-Dawley rat visual cortex assessed as LTP threshold after 15 mins
Response body: numeric value in µM, unit text excluded.

Query block: Supply measured Activity of NC(=O)C[C@H](N)C(=O)O in your reply.
Result block: 3

Query block: Supply measured Activity of O=C(O)[C@@H]1C[C@@H](O)CN1 in your reply.
Result block: 3

Query block: Supply measured Activity of N[C@H](CO)C(=O)O in your reply.
Result block: 3

Query block: Supply measured Activity of N[C@H](C(=O)O)c1ccc(O)cc1 in your reply.
Result block: 10

Query block: Supply measured Activity of N[C@H](C(=O)O)c1ccccc1 in your reply.
Result block: 10

###

- experimental_system: Glutamate NMDA receptor (Rattus norvegicus) (UniProt P35439+Q00959+Q00960+Q00961+Q62645+Q8VHN2+Q9R1M7)
- assay_comment: Potentiation of NMDA receptor mediated excitatory post-synaptic currents in the CA1 region of rat hippocampal slices upto 1 hr by whole-cell patch-clamp assay; note: test concentration or dose not given here
Active and inactive are the calls of the source. The rule behind the calls is not given here.
quantity_name: Activity

Reference set (5 entries):
N[C@H](CO)C(=O)O    inactive
O=C(O)[C@@H]1CCCN1    inactive
N[C@@H](CSCc1ccccc1)C(=O)O    inactive
N[C@@H](CCC(=O)Nc1ccc([N+](=O)[O-])cc1)C(=O)O    inactive
NC(=O)CC[C@H](N)C(=O)O    inactive

Query block: Supply measured Activity of NC(C(=O)O)c1ccccc1F (centres undefined) in your reply.
Result block: inactive

Query block: Supply measured Activity of O=C(O)[C@@H]1C[C@@H](O)CN1 in your reply.
Result block: inactive

Query block: Supply measured Activity of N[C@H](C(=O)O)c1ccccc1 in your reply.
Result block: inactive

Query block: Supply measured Activity of N[C@@H](CSc1ccccc1)C(=O)O in your reply.
Result block: inactive

Query block: Supply measured Activity of N[C@@H](CCC(=O)OCc1ccccc1)C(=O)O in your reply.
Result block: inactive

Query block: Supply measured Activity of N[C@@H](CO)C(=O)O in your reply.
Result block: inactive

Query block: Supply measured Activity of NC(=O)C[C@H](N)C(=O)O in your reply.
Result block: inactive

Query block: Supply measured Activity of N[C@H](C(=O)O)c1ccc(F)cc1 in your reply.
Result block: inactive

###

- Organism: Rattus norvegicus
- assay_comment: Inhibition of D-serine transporter in Sprague-Dawley rat visual cortex assessed as LTP threshold after 15 mins
quantity_name: Activity (µM)
Response body: numeric value in µM, unit text excluded.

Reference set (2 entries):
N[C@H](C(=O)O)C1CC1    1
N[C@@H](CCC(=O)Nc1ccc([N+](=O)[O-])cc1)C(=O)O    100

Query block: Supply measured Activity of N[C@H](C(=O)O)c1ccc(F)cc1 in your reply.
Result block: 0.3
